In this section, each of the compounds is paired with its reported growth.
Test system: U251 CNS
ASSAY EXPLANATION: NCI-60 one-dose screen, 48 h (100 = growth as untreated, 0 = no growth, -100 = all killed)
APPLIED CONDITIONS: 10 µM unless noted
The panel holds about 83,000 compounds, 20% with a hit somewhere; the sample as a whole holds those more often.
Number in %, nothing else.

Look at this compound and give its reported growth. "CC[C@H](Nc1nc(N)nc(C)c1C#N)c1nc2cccc(CN(C)c3ncc(C(=O)NO)cn3)c2c(=O)n1-c1ccccc1"
-69.6

Data request, read-out growth, for "O=C(NCc1ccc(Cn2c(=O)sn(-c3ccccc3)c2=O)cc1)OCc1ccc2cccc(O)c2n1"
9.01

Give its growth value. Item: "Cc1cccc(N=Nc2cccc(C)c2)c1"
106

// lookup growth for "COC(=O)/C=C1/SC(=NCc2ccccc2)N(CCc2c[nH]c3ccccc23)C1=O"
78.5

Please look up its growth: Clc1cccc(C2Cc3cnccc3-c3[nH]c4ccncc4c32)c1 (stereo not given)
36.9

Need growth of "C#Cc1cccc(Nc2ncnc3cc(NC(=O)CCl)ccc23)c1" , thanks.
-88.1

Please report the recorded growth for "Cc1cccc(NC(=O)N/C(N)=N/c2nc3ccccc3s2)c1" .
28.9

Sample "Cc1ccccc1N1CCN(C(=S)c2ccccc2)CC1" — what was its growth?
93.4

Can you share its growth? I mean this compound: "C[C@H]1[C@H](C)CC[C@]2(C(=O)NCCNCCN)CC[C@]3(C)C(=CC[C@@H]4[C@@]5(C)CCC(=O)C(C)(C)[C@@H]5CC[C@]43C)[C@H]12"
-28.6

Please report the recorded growth for "Cc1cc(=O)n(C(=S)Nc2ccc(Cl)cc2)c2cc(O)ccc12" .
101

New cases:
Which growth is reported for this compound? "Cc1cc(=O)oc2cc(Oc3nc(Br)cn4c(Br)cnc34)ccc12"
47.6

Quick one: growth of "ClC(Cl)c1nc(-c2ccccc2)n2nc(-c3ccccc3)cc2n1" ?
-14.9

Look up growth: "CN(C)CCC(=O)C1CC1"
102

Please look up its growth: CN(C)CCCC1(c2ccc(F)cc2)OCc2cc(-c3csc4ccccc34)ccc21 (stereo not given)
-57.1

Request the reported growth associated with "COC(=O)c1ccc2c(c1)c1c(C)c3cnccc3c(C)c1n2C"
-16.5

----------
Tested on: HCT-15 colon
ASSAY EXPLANATION: NCI-60 one-dose screen, 48 h
APPLIED CONDITIONS: 10 µM unless noted
This is part of a sample that, as a whole, favours compounds with a hit. Of some 83,000 tested, about 20% had one in any assay. Calls of active or inactive are those of the source. Rule for the calls: active = growth percent below 10; inactive = the rest.
Log the outcome using a class from active, inactive

// outcome(item) with item = CCCCC#Cc1c(I)n(C2OC(CO[Si](C)(C)C(C)(C)C)C3OC(C)(C)OC32)c(=O)n(C(=O)c2ccccc2)c1=O (centres undefined)
active

Given "COc1ccc(/C=C2\c3cc(OC)c(OC)c(OC)c3CC[C@@H]2O)cc1F" , state the outcome it received in this test.
inactive

What was the test verdict on "O=C(NCCCCO)c1cncnc1Nc1ccc2c(ccn2Cc2cccc(F)c2)c1" ?
inactive

// return assay outcome for "COc1ccc(C=Nc2c(C(=O)Nc3cccc(Cl)c3C)sc3nc(C)c(C(=O)/C=C/c4ccc(OC)cc4)cc23)cc1"
inactive

Hi, do you know how "CC/C(=C(/c1ccc(O)cc1)c1ccc(OCCN2CCCCC2)cc1)c1ccc(OC)cc1" came out in this test?
inactive

Recorded test call requested for "C=C(C)[C@@H]1CC[C@]2(CO)CC[C@]3(C)[C@H](CC[C@@H]4[C@@](C)(CCCN)[C@H](C(=C)C)CC[C@]43C)[C@@H]12"
active

Please share the test call associated with "CCOC(=O)c1nnn(-c2no[n+]([O-])c2-c2ccc(OC)cc2)c1COc1cccc2cccnc12" .
inactive

Check the results log: what was the call for Cc1ccc(C2CC(c3cccc(Nc4ccncc4)c3)=Nc3c(N)nc(N)nc3N2)cc1 (centres undefined) ?
inactive

Let's switch to this compound now.
Entry "O=C1/C(=C/c2ccccn2)SC(=S)N1N1CCOCC1" : call = ?
inactive

----------
Test system: U251 CNS
ASSAY EXPLANATION: NCI-60 one-dose screen, 48 h
APPLIED CONDITIONS: 10 µM unless noted
The panel holds about 83,000 compounds, 20% with a hit somewhere; the sample as a whole holds those more often. Calls of active or inactive are those of the source. Rule for the calls: active = growth percent below 10; inactive = the rest.
Response enum: active, inactive

Please review the following examples before continuing.
Look up the recorded call for "COc1cc(Cc2cc(OC)c(O)c(OC)c2)cc(OC)c1O" in this test.
inactive

Hello, I am checking results. What call was entered for CCOC(=O)C1=C(CCl)N(C)C(=O)NC1c1ccc2c(c1)OCO2 (configuration not stated) ?
inactive

Entry "CC1(C)N=C(N)N=C(N)N1c1ccc(S(=O)(=O)Nc2nccs2)cc1" : call = ?
inactive

***
What call does the record list for COc1cc2c(c(OC)c1OC)C(=O)CC(c1cccc(C(=O)Nc3ccccc3Br)c1)O2 (configuration not stated) ?
inactive

# fetch the recorded call for "c1ccc(Nc2nc3c(s2)CCc2c[nH]cc2-3)nc1" here
inactive

// outcome(item) with item = "CCCn1c(=S)sc2c(NNC(C)=O)nc(C)nc21"
inactive

----------
Tested on: BT-549 breast
ASSAY EXPLANATION: NCI-60 one-dose screen, 48 h (100 = growth as untreated, 0 = no growth, -100 = all killed)
APPLIED CONDITIONS: 10 µM unless noted
This is part of a sample that, as a whole, favours compounds with a hit. Of some 83,000 tested, about 20% had one in any assay.
MEASUREMENT KIND: growth (%)
Field: numeric (%). Do not append units.

Some compounds with known growth results, for comparison:
Please tell me: growth of "Clc1ccc2nn3c4ccccc4c(OCCN4CCOCC4)nc3c2c1" , system BT-549 breast?
97.8

Under BT-549 breast: growth value of "CCN(CC)CCN1C(=O)c2c(c3c4ccccc4[nH]c3c3ccc4ccccc4c23)C1=O" ?
84.5

More entries:
Provide value of growth for this record tested with BT-549 breast: "O=c1oc2ccccc2cc1-c1nn(-c2ccccc2)cc1-c1nn[nH]n1"
103

Which growth is reported with BT-549 breast for this entry: "CN(C)c1ccc([C@@H](C(=O)Nc2cccc([N+](=O)[O-])c2)N(C(=O)c2cc3ccccc3[nH]2)c2cccc([N+](=O)[O-])c2)cc1" ?
95.4

Under BT-549 breast: growth value of "COc1cccc(CNc2c3ccccc3nc3ccccc23)c1OC" ?
59.7

----------
System: LOX IMVI melanoma
ASSAY EXPLANATION: NCI-60 one-dose screen, 48 h
APPLIED CONDITIONS: 10 µM unless noted
About 83,000 compounds went through this panel and 20% of them were active in at least one assay; those are over-represented in the sample as a whole. Activity calls are given as the source filed them. The calls were made as follows: active = growth percent below 10; inactive = the rest.
Please answer using one outcome listed in active, inactive

Example cases with answers are listed next.
What outcome does the record of this test show for "CCCCCCCCCCCCCCCCCCOc1ccccc1CC(=O)NCC[N+](C)(C)C" ?
inactive

Can you look up the reported call for "COc1cc(-c2ccc[nH]2)[nH]c1/C=C1\N=C(C)C(CC(=O)OCC(C)(C)C)=C1C" for me?
active

Dear all, I need the recorded test outcome for "CCN(CC)CCOc1ccc2ccc(=O)oc2c1" , thank you.
inactive

Tell me the recorded outcome of this test for "CCOC(=O)C/C(=N\Nc1cc(=O)[nH]c2ccc(C)cc12)C(=O)OCC" .
inactive

So what was the verdict on "Cc1ccccc1N1CCN(C(=S)c2ccccc2)CC1" in this test?
inactive

Continuing:
Field: outcome | Entry: "N#Cc1c(-c2ccccc2)nc2c(c(-c3ccc(Cl)cc3)nn2-c2ccccc2)c1-c1ccc([N+](=O)[O-])cc1"
inactive

Which outcome did this test record for the molecule "CC(C)n1c2ccc(Br)cc2c2c3c(c4c5ccccc5ccc4c21)C(=O)NC3=O" ?
inactive

Hi, do you know how "Nc1nc(C(=O)N/N=C/c2ccc(F)cc2)nn1-c1ccc(S(N)(=O)=O)cc1" came out in this test?
inactive

Assay outcome for "CS(=O)(=O)Nc1cc(-c2ccc3ncnc(Nc4ccc(OCc5ccccn5)c(Cl)c4)c3c2)cnc1Cl" : what was it?
active

Which outcome was entered for the molecule C=C1C(=O)O[C@@H]2C3C(=C(C)CC[C@@H]12)CC1O[C@]13C (some centres undefined) in this test?
inactive

Record request — test call for "CCCN(CCSSCCNc1nc(N(C)O)nc(N(C)O)n1)c1nc(N(C)O)nc(N(C)O)n1"
inactive

So what was the verdict on "COc1ccc(Cl)cc1Nc1nc(C(F)(F)F)ccc1C(=O)N/N=C/c1ccc([N+](=O)[O-])cc1" in this test?
active

Which outcome was entered for the molecule "CCOC(=O)c1nnn(Cc2cc(=O)oc3ccc(O)cc23)c1C" in this test?
inactive

So what was the verdict on CCNC(=O)N1CCc2c(Br)c3c(c(OC)c2C1Cc1ccc(OC)cc1)OCO3 (centres undefined) in this test?
inactive

Could you please tell me the result logged for "COc1ccc(/C=N/NC(=O)Cn2c(-c3ccc(S(C)(=O)=O)cc3)nc3ccccc32)cc1" in this assay?
inactive

Please let me know the test result on file for "O=C(CCCCCCCC(=O)N1CCCCC1)N1CCCCC1" .
inactive
